Molecular target: human ERβ LBD (Homo sapiens, UniProt Q92731)
Sequence (Q92731 264-498 limits assumed): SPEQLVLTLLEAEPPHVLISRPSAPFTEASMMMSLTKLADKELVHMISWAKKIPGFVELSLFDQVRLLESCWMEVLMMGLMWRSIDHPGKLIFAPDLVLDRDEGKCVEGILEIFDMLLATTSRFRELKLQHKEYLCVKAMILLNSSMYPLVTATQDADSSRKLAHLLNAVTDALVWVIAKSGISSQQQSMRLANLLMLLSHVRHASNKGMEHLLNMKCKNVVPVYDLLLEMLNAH
Experiment: Competitive fluorescence polarization binding assay, ERβ
# maps each entry to its pKi
Remember, pKi is on a log scale: it is -log10 of the molar concentration.

Problem: Fill in the blank: the reported pKi of C=CC(=O)Nc1ccc(C2=C(c3ccc(O)cc3)C3OC2CC3S(=O)(=O)Oc2ccccc2)cc1 (stereo not shown) [Compound 28a] is ____.
Solution: 8.25

Problem: Fill in the blank: the reported pKi of CCN(c1ccc(O)cc1)S(=O)(=O)C1CC2OC1C(c1ccc(O)cc1)=C2c1ccc(NC(=O)C=C(C)C)cc1 (stereo not shown) [Compound 29i] is ____.
Solution: 8.89

Problem: Fill in the blank: the reported pKi of CC(C)=CC(=O)Nc1ccc(C2=C(c3ccc(O)cc3)C3OC2CC3S(=O)(=O)N(CC(F)(F)F)c2ccc(F)cc2)cc1 (stereo not shown) [Compound 29g] is ____.
Solution: 8.18

Problem: Fill in the blank: the reported pKi of C#CC(=O)Nc1ccc(OS(=O)(=O)C2CC3OC2C(c2ccc(O)cc2)=C3c2ccc(O)cc2)cc1 (stereo not shown) [Compound 26d] is ____.
Solution: 7.87

Problem: Fill in the blank: the reported pKi of O=C(CCl)Nc1ccc(C2=C(c3ccc(O)cc3)C3CC(S(=O)(=O)Oc4ccccc4)C2O3)cc1 (stereo not shown) [Compound 28d] is ____.
Solution: 8.14

Problem: Fill in the blank: the reported pKi of CC(C)=CC(=O)Nc1ccc(C2=C(c3ccc(O)cc3)C3CC(S(=O)(=O)N(CC(F)(F)F)c4ccccc4)C2O3)cc1 (stereo not shown) [Compound 29e] is ____.
Solution: 7.62

Problem: Fill in the blank: the reported pKi of Nc1ccc(C2=C(c3ccc(O)cc3)C3OC2CC3S(=O)(=O)N(CC(F)(F)F)c2ccc(O)cc2)cc1 (stereo not shown) [Compound 29l] is ____.
Solution: 8.55

###

# maps each entry to its RBA ERβ
Molecular target: human ERβ LBD (Homo sapiens, UniProt Q92731)
Test: Competitive fluorescence polarization binding assay, ERβ
Details: IC50 estradiol/IC50 compound × 100, estradiol = 100%
Provide only the numeric value, understood in %.

MOLECULE	SYSTEM UNDER TEST	UNITS LABEL	RBA ERβ
C/C=C/C(=O)Nc1ccc(C2=C(c3ccc(O)cc3)C3OC2CC3S(=O)(=O)N(CC(F)(F)F)c2ccc(O)cc2)cc1 (centres unmarked) [Compound 29b]	human ERβ LBD (Homo sapiens, UniProt Q92731)	%	0.63
CC(C)=CC(=O)Nc1ccc(C2=C(c3ccc(O)cc3)C3CC(S(=O)(=O)N(CC(F)(F)F)c4ccccc4)C2O3)cc1 (centres unmarked) [Compound 29e]	human ERβ LBD (Homo sapiens, UniProt Q92731)	%	0.28
C/C=C/C(=O)Nc1ccc(C2=C(c3ccc(O)cc3)C3OC2CC3S(=O)(=O)Oc2ccccc2)cc1 (centres unmarked) [Compound 28b]	human ERβ LBD (Homo sapiens, UniProt Q92731)	%	10.40
C=CC(=O)Nc1ccc(OS(=O)(=O)C2CC3OC2C(c2ccc(O)cc2)=C3c2ccc(O)cc2)cc1 (centres unmarked) [Compound 26a]	human ERβ LBD (Homo sapiens, UniProt Q92731)	%	3.86
CC(C)=CC(=O)Nc1ccc(C2=C(c3ccc(O)cc3)C3OC2CC3S(=O)(=O)N(CC(F)(F)F)c2ccc(O)cc2)cc1 (centres unmarked) [Compound 29c]	human ERβ LBD (Homo sapiens, UniProt Q92731)	%	0.61
C/C=C/C(=O)Nc1ccc(OS(=O)(=O)C2CC3OC2C(c2ccc(O)cc2)=C3c2ccc(O)cc2)cc1 (centres unmarked) [Compound 26b]	human ERβ LBD (Homo sapiens, UniProt Q92731)	%	0.40
CC(C)=CC(=O)Nc1ccc(C2=C(c3ccc(O)cc3)C3OC2CC3S(=O)(=O)N(CC(F)(F)F)c2ccc(F)cc2)cc1 (centres unmarked) [Compound 29g]	human ERβ LBD (Homo sapiens, UniProt Q92731)	%	1.02

Shift focus to the following entry.
Problem: Form field: RBA ERβ recorded for CC(C)=CC(=O)Nc1ccc(C2=C(c3ccc(O)cc3)C3OC2CC3S(=O)(=O)Oc2ccccc2)cc1 (centres unmarked) [Compound 28c] with human ERβ LBD (Homo sapiens, UniProt Q92731) (enter value)
Solution: 0.90
